measured-endpoint: melting point

Use the examples below as a reference point.
> print(dat)
                               smiles.entry  measured.endpoint        reading
1  CCN1CC=C(c2ccc3nc(-c4ccc5c(cnn5C)c4)cc(=O)n3c2)CC1      melting point  172 to 174 °C
2  COc1ccc(-c2cc(=O)n3cc(N4C[C@H]5CCCN(C)[C@H]5C4)ccc3n2)cc1F      melting point  223 to 227 °C
3  CCc1nc(C)cn2nc(-c3cc(=O)n4cc(N5CCN(C)[C@H](C)C5)ccc4n3)cc12      melting point  257 to 259 °C
4  COc1ccc(-c2cc(=O)n3cc(N4CCN[C@H](C)C4)cc(C)c3n2)cc1OC      melting point  177 to 184 °C
5  Cc1ccc(-c2cc(=O)n3cc(N4CCNCC4)ccc3n2)cc1F      melting point  174 to 176 °C

Q: Specify melting point for `COc1ccc(-c2cc(=O)n3cc(N4CCN[C@H](C)C4)ccc3n2)cc1OC` and stop.
Ans: 181 to 184 °C

Q: Give the measured melting point for `COCCN1CCN(c2ccc3nc(-c4cc(F)c5nc(C)cn5c4)cc(=O)n3c2)CC1`
Ans: 258 to 262 °C

Q: Find the measured melting point of `CN1CC=C(c2ccc3nc(-c4ccc(N(C)C)nc4)cc(=O)n3c2)CC1` and report it.
Ans: 214 to 216 °C

###

# Test system: SMN2 minigene mRNA (SMN2-A minigene) in HEK293H cells
# protocol-notes: SMN2 minigene mRNA splicing RT-qPCR assay in cultured cells
# Format: cell-based, human
# condition: Homo sapiens, HEK293-H; concentration increasing full length SMN2 mRNA 1.5-fold relative to vehicle-treated cells; HEK293H cells with SMN2-A minigene, 24 hours, 7-point concentration data; read-out: EC1.5x for production of full length SMN2 mRNA
# Procedure: The reverse transcription-quantitative PCR-based (RT-qPCR) assay is used to quantify the level of the full length SMN2 minigene mRNA containing SMN2 exon 7 in a HEK293H cell line stably transfected with said minigene and treated with a test compound. Protocol. […] The increase of SMN2 minigene FL mRNA relative to that in cells treated with vehicle control is determined from real-time PCR data using a modified ΔΔCt method (as described in Livak and Schmittgen, Methods, 2001, 25:402-8). […]
measured-endpoint: EC (1.5-fold increase)

Sample records with EC (1.5-fold increase):
> print(dat)
                                   compound                           subject.of.test    reading
1  Cc1cn2nc(-c3cc(=O)n4cc(N5C[C@H]6CN(C)C[C@H]6C5)ccc4n3)cc2c(C)n1 [Compound 835]  SMN2 minigene mRNA (SMN2-A minigene) in HEK293H cells   < 0.1 µM
2  Cc1cn2nc(-c3cc(=O)n4cc(N5CCNCC5)ccc4n3)cc2c(N(C)C)n1 [Cpd 688]  SMN2 minigene mRNA (SMN2-A minigene) in HEK293H cells  1 to 3 µM

Q: Check SMN2 minigene mRNA (SMN2-A minigene) in HEK293H cells data and give EC (1.5-fold increase) for Cn1cc2cc(-c3cc(=O)n4cc(N5CCNCC5)ncc4n3)ccc2n1 [Compound 586] .
Ans: 0.1 to 0.3 µM

Q: Find the measured EC (1.5-fold increase) of Cc1cn2cc(-c3cc(=O)n4cc(N5CCN(C)CC5)ccc4n3)cc(C)c2n1 [Compound 808] with SMN2 minigene mRNA (SMN2-A minigene) in HEK293H cells as test system.
Ans: < 0.1 µM

The values you see were collected from patent US11753407B2.
